The measurements presented in this section are drawn from patent US20220387457A1.

# assayProcedure: Plasma pharmacokinetics, 28-day topical ophthalmic dosing in beagle dogs
# statedConditions: male, beagle, dog, in vivo, topical or ocular, 0.2 mg/kg, t1/2
propertyName: half-life (h)
Numbers only here, please. The scale is h.

## Task Quick one: half-life for CC1(C)Oc2ccc(C#N)cc2[C@@H](N2CCCC2=O)[C@@H]1OP(=O)(O)O [CKLP1] ?
## Result 3.69

---

# assayProcedure: Plasma pharmacokinetics of CKLP1 and levcromakalim after topical dosing in hound dogs
# Assay type: in vivo, hound dog
# statedConditions: hound, dog, plasma, topical or ocular, 10 mM CKLP1, 50 µL in each of both eyes, CKLP1; topical 10 mM CKLP1 once daily; Day 8
propertyName: Cmax (ng/mL)
Numbers only here, please. The scale is ng/mL.

## Task Quick one: Cmax for "CC1(C)Oc2ccc(C#N)cc2[C@@H](N2CCCC2=O)[C@@H]1OP(=O)(O)O" ?
## Result 8.9

---

# assayProcedure: Plasma pharmacokinetics, 28-day topical ophthalmic dosing in beagle dogs
# statedConditions: male, beagle, dog, in vivo, topical or ocular, 0.41 mg/kg, t1/2
propertyName: half-life

## Task Quick one: half-life for "CC1(C)Oc2ccc(C#N)cc2[C@@H](N2CCCC2=O)[C@@H]1OP(=O)(O)O" ?
## Result 4.26 h

---

# assayProcedure: Concentration of CKLP1 and levcromakalim in ocular and systemic tissues of hound dogs
# Type: in vivo, hound dog
# statedConditions: hound, dog, vitreous humor; 23 hours after last dose; topical 10 mM CKLP1 12-13 days; two animals; read-out: concentration in vitreous humor
propertyName: concentration at 23 h (ng/g)
Numbers only here, please. The scale is ng/g.

## Task Quick one: concentration at 23 h for "CC1(C)Oc2ccc(C#N)cc2[C@@H](N2CCCC2=O)[C@@H]1OP(=O)(O)O" ?
## Result 24.4

---

# assayProcedure: Plasma pharmacokinetics of CKLP1 and levcromakalim after topical dosing in hound dogs
# Type: in vivo, hound dog
# statedConditions: CKLP1; topical 10 mM CKLP1 once daily; Day 1
propertyName: Tlast (min)
Numbers only here, please. The scale is min.

## Task Quick one: Tlast for "CC1(C)Oc2ccc(C#N)cc2[C@@H](N2CCCC2=O)[C@@H]1OP(=O)(O)O" ?
## Result 480

---

# assayProcedure: Toxicokinetics after escalating intravenous doses of CKLP1 in beagles
# Type: in vivo, beagle dog
# statedConditions: female, beagle, dog, in vivo, iv, 3 mg/kg
# Procedure: Two beagles (one male and one female) were intravenously injected with escalating doses of CKPL1 (0.05 mg/kg, 0.5 mg/kg, 1.5 mg/kg, 3 mg/kg, and 5 mg/kg) to assess the toxicity of CKLP1. […] The following parameters and endpoints were evaluated: mortality, clinical observations, body and organ weights, and food consumption. […] Toxicokinetics (TK) were determined based on the individual exposures for each animal on each sampled study day (days 1, 3, 8, 10, and 14). […]
Consider the following molecules; for each one, report its Cmax.
Numbers only here, please. The scale is ng/mL.

## Task Quick one: Cmax for CC1(C)Oc2ccc(C#N)cc2[C@@H](N2CCCC2=O)[C@@H]1O [Levcromakalim, levcromakalim, reference compound] ?
## Result 28.3

## Task CC1(C)Oc2ccc(C#N)cc2[C@@H](N2CCCC2=O)[C@@H]1OP(=O)(O)O [CKLP1] ?
## Result 18400
